System: Vero
Assay: Cytotoxicity against African green monkey Vero cells up to 9 uM
Assay type: cell-based
Settings: chlorocebus sabaeus
readout: Activity

{"columns": ["given-smiles", "recorded-value"],
 "data": [
  ["Cc1cc(N(CCCNc2ccnc3cc(Cl)ccc23)Cc2ccc3c(c2)OCO3)nc(N2CCOCC2)n1", "Non-Toxic"],
  ["Cc1cc(N(CCNc2ccnc3cc(Cl)ccc23)Cc2ccc3c(c2)OCO3)nc(N2CCOCC2)n1", "Non-Toxic"],
  ["Cc1cc(N(CCNc2ccnc3cc(Cl)ccc23)Cc2ccc3c(c2)OCO3)nc(N2CCCC2)n1", "Non-Toxic"]
]}

----------
Test: Selectivity index, ratio of IC50 for African green monkey Vero cells to IC50 for chloroquine-resistant Plasmodium falciparum W2
Assay type: toxicity
Conditions: read-out: Ratio IC50
readout: selectivity ratio

Examples from the recorded data:
{"columns": ["given-smiles", "recorded-value"],
 "data": [
  ["Cc1cc(Cl)nc(N(CCCNc2ccnc3cc(Cl)ccc23)Cc2ccc3c(c2)OCO3)n1", "> 1.9"],
  ["CCN1CCN(c2cc(C)nc(N(CCNc3ccnc4cc(Cl)ccc34)Cc3ccc4c(c3)OCO4)n2)CC1", "> 60.4"]
]}

// sample Cc1cc(N(CCNc2ccnc3cc(Cl)ccc23)Cc2ccc3c(c2)OCO3)nc(N2CCCCC2)n1 , its selectivity ratio was > 30.5

// sample Cc1cc(N2CCCCC2)nc(N(CCNc2ccnc3cc(Cl)ccc23)Cc2ccc3c(c2)OCO3)n1 , its selectivity ratio was > 15.9

// sample Cc1cc(N(CCCNc2ccnc3cc(Cl)ccc23)Cc2ccc3c(c2)OCO3)nc(N2CCCC2)n1 , its selectivity ratio was > 96.9

// sample Cc1cc(N2CCOCC2)nc(N(CCNc2ccnc3cc(Cl)ccc23)Cc2ccc3c(c2)OCO3)n1 , its selectivity ratio was 8.5

// sample CCN1CCN(c2cc(C)nc(N(CCCNc3ccnc4cc(Cl)ccc34)Cc3ccc4c(c3)OCO4)n2)CC1 , its selectivity ratio was > 37.9

// sample Cc1cc(N2CCCC2)nc(N(CCCNc2ccnc3cc(Cl)ccc23)Cc2ccc3c(c2)OCO3)n1 , its selectivity ratio was > 15.1

// sample Clc1ccc2c(NCCNCc3ccc4c(c3)OCO4)ccnc2c1 , its selectivity ratio was > 54.3

----------
Assay: Selectivity index, ratio of IC50 for African green monkey Vero cells to IC50 for chloroquine-sensitive Plasmodium falciparum D6
Assay type: toxicity
Conditions: read-out: Ratio IC50
Listed compounds paired with reported selectivity ratio

Examples from the recorded data:
{"columns": ["given-smiles", "selectivity ratio"],
 "data": [
  ["Cc1cc(N(CCCNc2ccnc3cc(Cl)ccc23)Cc2ccc3c(c2)OCO3)nc(N2CCOCC2)n1", "> 60"],
  ["CCN1CCN(c2nc(C)cc(N(CCNc3ccnc4cc(Cl)ccc34)Cc3ccc4c(c3)OCO4)n2)CC1", "> 243"],
  ["Cc1cc(N(CCNc2ccnc3cc(Cl)ccc23)Cc2ccc3c(c2)OCO3)nc(N2CCCCC2)n1", "> 174"],
  ["Cc1cc(N2CCCCC2)nc(N(CCNc2ccnc3cc(Cl)ccc23)Cc2ccc3c(c2)OCO3)n1", "> 53.6"]
]}

Okay, now this compound:
// sample CCN1CCN(c2cc(C)nc(N(CCCNc3ccnc4cc(Cl)ccc34)Cc3ccc4c(c3)OCO4)n2)CC1 , its selectivity ratio was > 71.1

----------
System: Plasmodium falciparum
Assay: Antiplasmodial activity against chloroquine-sensitive Plasmodium falciparum D6 infected in red blood cells after 72 hrs by Malstat reagent based LDH assay
Assay type: functional, cell-based
Settings: D6, 72 h
readout: IC50 (nM)
Value expressed in nM; do not type the unit.

Examples from the recorded data:
{"columns": ["given-smiles", "readout-unit", "IC50"],
 "data": [
  ["Cc1cc(N(CCCNc2ccnc3cc(Cl)ccc23)Cc2ccc3c(c2)OCO3)nc(N2CCOCC2)n1", "nM", 150],
  ["Cc1cc(N(CCNc2ccnc3cc(Cl)ccc23)Cc2ccc3c(c2)OCO3)nc(N2CCOCC2)n1", "nM", 50],
  ["Cc1cc(N2CCCC2)nc(N(CCCNc2ccnc3cc(Cl)ccc23)Cc2ccc3c(c2)OCO3)n1", "nM", 120],
  ["Cc1cc(N2CCCC2)nc(N(CCNc2ccnc3cc(Cl)ccc23)Cc2ccc3c(c2)OCO3)n1", "nM", 150],
  ["Clc1ccc2c(NCCNCc3ccc4c(c3)OCO4)ccnc2c1", "nM", 30]
]}

// sample CCN1CCN(c2nc(C)cc(N(CCCNc3ccnc4cc(Cl)ccc34)Cc3ccc4c(c3)OCO4)n2)CC1 , its IC50 was 40

// sample Cc1cc(N2CCOCC2)nc(N(CCNc2ccnc3cc(Cl)ccc23)Cc2ccc3c(c2)OCO3)n1 , its IC50 was 130

// sample CCN1CCN(c2nc(C)cc(N(CCNc3ccnc4cc(Cl)ccc34)Cc3ccc4c(c3)OCO4)n2)CC1 , its IC50 was 20

// sample CCN1CCN(c2cc(C)nc(N(CCCNc3ccnc4cc(Cl)ccc34)Cc3ccc4c(c3)OCO4)n2)CC1 , its IC50 was 120

Numbers sourced from ChEMBL document CHEMBL4011605.
